The measurements presented in this section are drawn from PubChem BioAssay (NCI).

tested on: SNB-19 CNS; assay: NCI-60 one-dose screen, 48 h (100 = growth as untreated, 0 = no growth, -100 = all killed); conditions: 10 µM unless noted
Compounds without any hit were thinned out: in the full panel of roughly 83,000, 20% have a hit. Active and inactive are the calls of the source. The calls were made as follows: active = growth percent below 10; inactive = the rest.
test readout: growth

>  <compound>
Clc1ccc(Nc2ncnc3c2sc2ncccc23)c(Cl)c1

>  <growth>
27.4% (inactive)

$$$$
>  <compound>
CCSc1ccc([C@@H]2[C@@H](O)C(=O)N2c2cc(OC)c(OC)c(OC)c2)cc1

>  <growth>
35.5% (inactive)

$$$$
>  <compound>
CC1(C)C2CCC(O)(C(=O)O)C1C2 (stereo unspecified)

>  <growth>
102% (inactive)

$$$$
>  <compound>
COc1ccc2[nH]cc(C(c3ccc(Cl)cc3)N3CCCC3)c2c1 (stereo unspecified)

>  <growth>
105% (inactive)

$$$$
>  <compound>
Cc1c(O)c(=O)n(-c2ccccc2)n1C

>  <growth>
106% (inactive)

$$$$
>  <compound>
Cc1cc(C)c2c(n1)sc1c(Nc3ccc(Cl)cc3Cl)ncnc12

>  <growth>
32.4% (inactive)

$$$$

Moving on to the next compound.
Which growth reading was recorded for the compound "Nc1nc(N)c2cc(CNc3ccc(Cl)c(Cl)c3)ccc2n1" ? 31.5% (inactive)
